- System: SNB-75 CNS
- ASSAY_PROTOCOL: NCI-60 one-dose screen, 48 h (100 = growth as untreated, 0 = no growth, -100 = all killed)
- CONDITION_INFO: 10 µM unless noted
This is part of a sample that, as a whole, favours compounds with a hit. Of some 83,000 tested, about 20% had one in any assay. Active and inactive are the calls of the source. The calls were made as follows: active = growth percent below 10; inactive = the rest.

{"MOLECULE": "COc1ccc2[nH]c(C(=O)N3CCN(C(=O)OCc4ccc5c(Br)cc(Br)c(O)c5n4)CC3)cc2c1", "TARGET_OF_ASSAY": "SNB-75 CNS", "growth": "-98.5% (active)"}
{"MOLECULE": "COc1cc2c(cc1OCCCN1CCN(CCCOc3cc4c(cc3OC)C(=O)N3C[C@H](F)C[C@H]3C=N4)CC1)N=C[C@@H]1C[C@@H](F)CN1C2=O", "TARGET_OF_ASSAY": "SNB-75 CNS", "growth": "-72.3% (active)"}
{"MOLECULE": "CC[C@]1(O)CC2CN(CCc3c([nH]c4ccccc34)[C@@](C(=O)OC)(c3cc4c(cc3OC)N(C=O)[C@H]3[C@@](O)(C(=O)OC)[C@H](OC(C)=O)[C@]5(CC)C=CCN6CC[C@]43[C@@H]65)C2)C1 (some centres not stated)", "TARGET_OF_ASSAY": "SNB-75 CNS", "growth": "38.7% (inactive)"}
{"MOLECULE": "CC(C)[C@H]1COC(=O)N1[C@@H]1C(=O)N([C@@H](CCC(=O)N2CCN(C3CCCC3)CC2)C(=O)N[C@@H]2CCCc3ccccc32)[C@@H]1/C=C/c1cccc(Cl)c1", "TARGET_OF_ASSAY": "SNB-75 CNS", "growth": "92% (inactive)"}
{"MOLECULE": "CC(=O)Nc1ccc(C=Nc2ccc3ccccc3c2)cc1", "TARGET_OF_ASSAY": "SNB-75 CNS", "growth": "77.7% (inactive)"}
{"MOLECULE": "COCc1nc2ccccc2[nH]1", "TARGET_OF_ASSAY": "SNB-75 CNS", "growth": "95.8% (inactive)"}
{"MOLECULE": "C=C(C)[C@@H]1CC[C@]2(C)[C@H](CC=C3[C@@H]4[C@@H](C)[C@H](C)CC[C@]4(C(N)=O)CC[C@]32C)[C@@]1(C)CCC#N", "TARGET_OF_ASSAY": "SNB-75 CNS", "growth": "-5.4% [100 µM] (active)"}

====

- Tested on: IGROV1 ovarian
- ASSAY_PROTOCOL: NCI-60 one-dose screen, 48 h
- CONDITION_INFO: 10 µM unless noted
This is part of a sample that, as a whole, favours compounds with a hit. Of some 83,000 tested, about 20% had one in any assay. Calls of active or inactive are those of the source. Rule for the calls: active = growth percent below 10; inactive = the rest.
Labels: active, inactive

{"MOLECULE": "CCN(CC)c1ccc2cc(NC(=O)OCCNC(=O)CCNC(=O)[C@H](CC(C)C)NC(=O)C(C)(C)NC(=O)C(C)(C)NC(=O)[C@H](CC(C)C)NC(=O)CCNC(=O)C(C)(C)NC(=O)[C@H](CC(C)C)NC(=O)CCNC(=O)[C@@](C)(CC)NC(=O)[C@H](C)NC(=O)CCNC(=O)C(C)(C)NC(=O)[C@H](C)NC(=O)[C@@H]3CCCN3C(=O)[C@@](C)(CC)NC(=O)[C@H](Cc3ccccc3)NC(=O)C3CCCN3C(=O)C(C)(C)NC(=O)C3CCCN3C(=O)C(C)(C)NC(C)=O)c(=O)oc2c1 (stereo partly specified)", "TARGET_OF_ASSAY": "IGROV1 ovarian", "CLASS_ASSIGNMENT": "active"}
{"MOLECULE": "COc1cc(NCc2ccccc2O)c2ncccc2c1", "TARGET_OF_ASSAY": "IGROV1 ovarian", "CLASS_ASSIGNMENT": "inactive"}
{"MOLECULE": "O=C1Nc2ccccc2/C1=C/C(=O)c1ccc(N2CCOCC2)cc1", "TARGET_OF_ASSAY": "IGROV1 ovarian", "CLASS_ASSIGNMENT": "inactive"}
{"MOLECULE": "NS(=O)(=O)c1ccc(CCN2C(=O)/C(=C\\c3ccccc3)C=C2c2ccc(Cl)cc2)cc1", "TARGET_OF_ASSAY": "IGROV1 ovarian", "CLASS_ASSIGNMENT": "inactive"}
{"MOLECULE": "CC1(C)CC[C@]2(C(N)=O)CC[C@]3(C)C(=CC[C@@H]4[C@@]5(C)C/C(=C/c6ccncc6)C(=O)C(C)(C)[C@@H]5CC[C@]43C)[C@@H]2C1", "TARGET_OF_ASSAY": "IGROV1 ovarian", "CLASS_ASSIGNMENT": "active"}
{"MOLECULE": "c1coc2occoc=2o1", "TARGET_OF_ASSAY": "IGROV1 ovarian", "CLASS_ASSIGNMENT": "inactive"}

====

- System: A498 renal
- ASSAY_PROTOCOL: NCI-60 one-dose screen, 48 h (100 = growth as untreated, 0 = no growth, -100 = all killed)
- CONDITION_INFO: 10 µM unless noted
This is part of a sample that, as a whole, favours compounds with a hit. Of some 83,000 tested, about 20% had one in any assay. Activity calls are given as the source filed them. Rule for the calls: active = growth percent below 10; inactive = the rest.

{"STRUCTURE": "C[C@@H]1C[C@H]2C(=O)O[C@@H](C)[C@H](NC(=O)[C@H](Cc3cc(F)cc(F)c3)NC(=O)Nc3ccc(Cl)cc3F)C(=O)N3C[C@H](O)C[C@H]3C(=O)N3CCN(C)C[C@H]3C(=O)N[C@@H](C)C(=O)N2C1", "growth": "33.1% (inactive)"}
{"STRUCTURE": "COc1cc(C)cc2oc3oc(=O)c(-c4nc5ccccc5s4)cc3c(=O)c12", "growth": "85.1% (inactive)"}
{"STRUCTURE": "CC(C)[C@H]1CCC2=C3CC[C@]45OC(=O)[C@@]6(CCC(C)(C)C[C@H]64)CC[C@@]5(C)[C@]3(C)CC[C@@]21C", "growth": "103% [100 µM] (inactive)"}

====

- Test system: PC-3 prostate
- ASSAY_PROTOCOL: NCI-60 one-dose screen, 48 h (100 = growth as untreated, 0 = no growth, -100 = all killed)
- CONDITION_INFO: 10 µM unless noted
Compounds without any hit were thinned out: in the full panel of roughly 83,000, 20% have a hit.

{"MOLECULE": "Cc1ccc(NC(=O)N[C@@H](Cc2cc(F)cc(F)c2)C(=O)N[C@@H]2C(=O)N3CCC[C@H]3C(=O)N3CCCC[C@H]3C(=O)N[C@@H](C)C(=O)N3C[C@H](C)C[C@H]3C(=O)O[C@H]2C)cc1", "growth / %": 16.1}
{"MOLECULE": "C=CCCC1(C)NC(=O)NC1=O (centres undefined)", "growth / %": 86.5}
{"MOLECULE": "CCOC(=O)c1cc(C#N)n2ncc3ccccc3c12", "growth / %": 92.8}
{"MOLECULE": "CCOC(=O)c1nn(C2CCCCO2)c2ccc(NC(=O)CSc3nc4ccccc4c(=O)[nH]3)cc12 (centres undefined)", "growth / %": 105}

====

In this section, each of the compounds is paired with its reported growth.
- Tested on: OVCAR-5 ovarian
- ASSAY_PROTOCOL: NCI-60 one-dose screen, 48 h (100 = growth as untreated, 0 = no growth, -100 = all killed)
- CONDITION_INFO: 10 µM unless noted
About 83,000 compounds went through this panel and 20% of them were active in at least one assay; those are over-represented in the sample as a whole. The source made the active and inactive calls. How the source made its calls: active means growth percent below 10; inactive means the rest.
OUTCOME_MEASURE: growth

{"COMPOUND": "O=C(NCCO)c1cccnc1", "TARGET_OF_ASSAY": "OVCAR-5 ovarian", "OUTCOME_MEASURE": "growth", "RESULT": "103% (inactive)"}
{"COMPOUND": "CCN(CC)c1ccc2cc(C(Nc3ccc(Br)c(C(F)(F)F)c3)c3nnnn3C(C)(C)C)c(=O)oc2c1 (stereo not drawn)", "TARGET_OF_ASSAY": "OVCAR-5 ovarian", "OUTCOME_MEASURE": "growth", "RESULT": "92% (inactive)"}
{"COMPOUND": "CSc1nc(=S)c2nc(SC)n(-c3ccccc3)c2[nH]1", "TARGET_OF_ASSAY": "OVCAR-5 ovarian", "OUTCOME_MEASURE": "growth", "RESULT": "104% (inactive)"}
{"COMPOUND": "CCOC(=O)COc1ccc2c(c1)O/C(=C\\c1ccc(O)cc1)C2=O", "TARGET_OF_ASSAY": "OVCAR-5 ovarian", "OUTCOME_MEASURE": "growth", "RESULT": "102% (inactive)"}
{"COMPOUND": "CC1Cc2c(ncnc2-n2cnc3ccccc32)N(C)c2ccccc21 (stereo not drawn)", "TARGET_OF_ASSAY": "OVCAR-5 ovarian", "OUTCOME_MEASURE": "growth", "RESULT": "95.2% (inactive)"}
{"COMPOUND": "Cc1cccc(C[C@H](NC(=O)Nc2ccc(Cl)cc2F)C(=O)N[C@@H]2C(=O)N3C[C@H](OC(=O)CCN(C)C)C[C@H]3C(=O)N3CCCC[C@H]3C(=O)N[C@@H](C)C(=O)N3C[C@H](C)C[C@H]3C(=O)O[C@H]2C)c1", "TARGET_OF_ASSAY": "OVCAR-5 ovarian", "OUTCOME_MEASURE": "growth", "RESULT": "32.6% (inactive)"}
{"COMPOUND": "C=C(CN=[N+]=[N-])[C@@H]1CC[C@]2(C)[C@H](CC[C@@H]3[C@H]4[C@H]5OC(=O)[C@@]4(CCC5(C)C)CC[C@]32C)[C@@]1(C)CCC#N", "TARGET_OF_ASSAY": "OVCAR-5 ovarian", "OUTCOME_MEASURE": "growth", "RESULT": "98.3% [100 µM] (inactive)"}
{"COMPOUND": "O=C(CSc1nc2ccc([N+](=O)[O-])cc2[nH]1)Nc1ccc(F)c(Cl)c1", "TARGET_OF_ASSAY": "OVCAR-5 ovarian", "OUTCOME_MEASURE": "growth", "RESULT": "50.9% (inactive)"}

The measured values listed here are drawn from PubChem BioAssay (NCI).
